Task for the reader: assign each of the following binders its reported phage ELISA signal ratio.
# system_tested: T1, FRS3 12-117 IRS (domain begin residue: 12, domain end residue: 117), O43559
# T1 chain: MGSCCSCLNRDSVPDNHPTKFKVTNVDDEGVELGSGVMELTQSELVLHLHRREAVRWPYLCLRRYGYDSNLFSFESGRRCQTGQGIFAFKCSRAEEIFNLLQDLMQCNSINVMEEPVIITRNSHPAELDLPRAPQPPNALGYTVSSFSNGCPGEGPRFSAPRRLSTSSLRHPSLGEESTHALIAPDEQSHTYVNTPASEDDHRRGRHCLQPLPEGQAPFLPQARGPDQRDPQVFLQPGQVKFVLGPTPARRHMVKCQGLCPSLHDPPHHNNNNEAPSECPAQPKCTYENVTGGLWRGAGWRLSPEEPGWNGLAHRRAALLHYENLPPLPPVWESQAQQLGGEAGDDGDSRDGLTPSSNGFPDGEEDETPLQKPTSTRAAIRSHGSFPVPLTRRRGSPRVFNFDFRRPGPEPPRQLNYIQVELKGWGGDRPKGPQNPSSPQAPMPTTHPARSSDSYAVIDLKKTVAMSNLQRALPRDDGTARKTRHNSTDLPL
# assay_comment: phage ELISA signal ratio (GST-PRM binding over GST background); higher = stronger binding of peptide-phage to the PRM
Give bare numbers.

Answered examples (3):
VGQGVFLDWKPGRDVN    10.6
SQWMWIVHEPVKNLPK    3.36
PQGTWFTIIQEPSQHD    5.78

Lookup: Quick one: give measured phage ELISA signal ratio for MTWWVAPWNESLDLWE
Found: 10.5
